# key: entry, value: pIC50
- ASSAYED SYSTEM: IGF-1R Ba/F3 (Homo sapiens)
- Construct: fused on or other part: TEL- (or BCR-) IGF-1R in Ba/F3: the kinase part holds the site
- MEASUREMENT NOTES: Ba/F3 Cell Viability Inhibition Assay (IGF-1R Ba/F3)
- Format: cell-based, murine
- CONDITION NOTES: Tel-TK transformed Ba/F3 cells, 48 hours, Britelite luminescence
Formally, pIC50 is defined as -log10 of the concentration c, with c in mol/L.

Please review the following examples before continuing.
[
  {
    "COMPOUND": "Cc1cc(Nc2nc(Nc3cc(C)c(C4CCN(CC5CC5(F)F)CC4)cc3F)ncc2Cl)n[nH]1 (stereo not drawn)",
    "RECORDED ENDPOINT": "pIC50",
    "ASSAY RESULT": 7.20
  },
  {
    "COMPOUND": "Cc1cc(Nc2nc(Nc3cc(C)c(C4CCN(C=O)CC4)cc3F)ncc2Cl)n[nH]1",
    "RECORDED ENDPOINT": "pIC50",
    "ASSAY RESULT": 7.52
  },
  {
    "COMPOUND": "Cc1cc(Nc2nc(Nc3cc(C#N)c(C4CCN(C)CC4)cc3C)ncc2Cl)n[nH]1",
    "RECORDED ENDPOINT": "pIC50",
    "ASSAY RESULT": 7.43
  }
]

Request: Consider the compound Cc1cc(Nc2nc(Nc3cc(C)c(C4CCN(CCC(=O)N5CCCC5)CC4)cc3C)ncc2Cl)n[nH]1 and give its measured pIC50.
Response: 7.41

Request: Recorded pIC50 of CCOC(=O)N1CCC(c2cc(C)c(Nc3ncc(Cl)c(Nc4cc(C)[nH]n4)n3)cc2C)CC1 , please.
Response: 7.89

Request: Fill in the blank: the reported pIC50 of CNC(=O)CN1CCC(c2cc(F)c(Nc3ncc(Cl)c(Nc4cc(C)[nH]n4)n3)cc2C)CC1 is ____.
Response: 7.72

Request: What does the record list as pIC50 for Cc1cc(Nc2nc(Nc3cc(C)c(C4CCN(C5CCOCC5)CC4)cc3F)ncc2Cl)n[nH]1 ?
Response: 7.57

Request: Return reported pIC50; argument: CNC(C)(C)C(=O)N1CCC(c2cc(F)c(Nc3ncc(Cl)c(Nc4cc(C)[nH]n4)n3)cc2C)CC1
Response: 7.77

----------
- ASSAYED SYSTEM: IGF-1R Ba/F3 (Homo sapiens, UniProt P08069)
- Construct: fused on or other part: TEL- (or BCR-) IGF-1R in Ba/F3: the kinase part holds the site
- Sequence (P08069 999-1274 limits assumed): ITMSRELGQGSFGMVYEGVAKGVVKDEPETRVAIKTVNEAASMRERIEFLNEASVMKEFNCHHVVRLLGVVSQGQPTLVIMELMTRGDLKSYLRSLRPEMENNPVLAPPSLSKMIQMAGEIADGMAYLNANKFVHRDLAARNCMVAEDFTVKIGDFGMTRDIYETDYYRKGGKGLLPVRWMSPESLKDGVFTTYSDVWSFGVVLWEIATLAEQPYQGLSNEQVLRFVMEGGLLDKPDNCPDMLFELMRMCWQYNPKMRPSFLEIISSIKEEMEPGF
- MEASUREMENT NOTES: Ba/F3 Cell Viability Inhibition Assay (IGF-1R Ba/F3)
- CONDITION NOTES: Tel-TK transformed Ba/F3 cells, 48 hours, Britelite luminescence
RECORDED ENDPOINT: pIC50
Just the number, please; pIC50 means minus log10 of the concentration in mol/L.

Reference set, count: 8
[
  {
    "COMPOUND": "Cc1cc(Nc2nc(Nc3cc(C)c(C4CCN(C5CC5)CC4)cc3F)ncc2Cl)n[nH]1 [Compound 210]",
    "pIC50": 7.49
  },
  {
    "COMPOUND": "Cc1cc(Nc2nc(Nc3cc(C)c(C4CCN(CC5CC5(F)F)CC4)cc3F)ncc2C(F)(F)F)n[nH]1 (stereo not drawn) [Compound 251]",
    "pIC50": 7.28
  },
  {
    "COMPOUND": "Cc1cc(Nc2nc(Nc3cc(C)c(C4CCN(C(=O)C5CNC5=O)CC4)cc3F)ncc2Cl)n[nH]1 (stereo not drawn) [Compound 119]",
    "pIC50": 5.52
  },
  {
    "COMPOUND": "Cc1ccc(N2CCC(c3cc(F)c(Nc4ncc(Cl)c(Nc5cc(C)[nH]n5)n4)cc3C)CC2)nn1 [Compound 277]",
    "pIC50": 7.01
  },
  {
    "COMPOUND": "CCNC(=O)N1CCC(c2cc(C)c(Nc3ncc(Cl)c(Nc4cc(C)[nH]n4)n3)cc2C)CC1 [Compound 71]",
    "pIC50": 8.70
  },
  {
    "COMPOUND": "CCN1CCC(c2cc(C)c(Nc3ncc(Cl)c(Nc4cc(C)[nH]n4)n3)cc2C)CC1 [Compound 211]",
    "pIC50": 8.05
  },
  {
    "COMPOUND": "Cc1cc(Nc2ncc(Cl)c(N[C@@H]3CCCCNC3=O)n2)c(F)cc1C1CCN(C)CC1 (single isomer, unassigned) [Compound 11]",
    "pIC50": 7.19
  },
  {
    "COMPOUND": "Cc1cc(Nc2nc(Nc3cc(Cl)c(C4CCN(C(=O)CN5CCC5)CC4)cc3C)ncc2Cl)n[nH]1 [Compound 96]",
    "pIC50": 7.62
  }
]

Request: Quick check: pIC50 of Cc1cc(Nc2nc(Nc3cc(C)c(C4CCN(C(=O)[C@@H]5COCCN5)CC4)cc3F)ncc2Cl)n[nH]1 [Compound 143] ?
Response: 7.15

----------
- ASSAYED SYSTEM: IGF-1R Ba/F3 (Homo sapiens, UniProt P08069)
- Construct: fused on or other part: TEL- (or BCR-) IGF-1R in Ba/F3: the kinase part holds the site
- MEASUREMENT NOTES: Ba/F3 Cell Viability Inhibition Assay (IGF-1R Ba/F3)
- CONDITION NOTES: Tel-TK transformed Ba/F3 cells, 48 hours, Britelite luminescence
pIC50: −log10 of the molar value.
Is pIC50 at least 7? Then 1. If not, 0.

Some solved entries appear below for comparison.
[
  {
    "MOLECULE": "Cc1cc(C2CCN(CC(N)=O)CC2)c(C)cc1Nc1ncc(Cl)c(Nc2cc(C(F)(F)F)[nH]n2)n1",
    "LABEL CLASS": 1
  },
  {
    "MOLECULE": "CCc1cc(Nc2nc(Nc3cc(C)c(C4CCN(C)CC4)cc3F)ncc2Cl)n[nH]1",
    "LABEL CLASS": 1
  },
  {
    "MOLECULE": "COc1cc(Nc2ncc(Cl)c(Nc3cc(C)[nH]n3)n2)c(C)cc1C1CCN(C[C@H](O)C(F)(F)F)CC1",
    "LABEL CLASS": 1
  },
  {
    "MOLECULE": "Cc1cc(Nc2nc(Nc3cc(C)c(C4CCCCN4C[C@@H](O)C(F)(F)F)cc3C)ncc2Cl)n[nH]1 (stereo partly shown)",
    "LABEL CLASS": 0
  },
  {
    "MOLECULE": "CNC(=O)CN1CCC[C@@H](c2cc(C)c(Nc3ncc(Cl)c(Nc4cc(C)[nH]n4)n3)cc2C)C1 (single isomer, unassigned)",
    "LABEL CLASS": 1
  },
  {
    "MOLECULE": "Cc1cc(Nc2nc(Nc3cc(C)c(C4CCN(CC(O)C(F)(F)F)CC4)cc3C)ncc2Cl)n[nH]1 (stereo not shown)",
    "LABEL CLASS": 1
  }
]

// next entry
Request: Exam item: decide whether the reported pIC50 for Cc1cc(C2CCN(CCO)CC2)c(C)cc1Nc1ncc(Cl)c(Nc2cc(C3CC3)[nH]n2)n1 is at least 7.
Response: 1

----------
- ASSAYED SYSTEM: IGF-1R Ba/F3 (Homo sapiens, UniProt P08069)
- Construct: fused on or other part: TEL- (or BCR-) IGF-1R in Ba/F3: the kinase part holds the site
- MEASUREMENT NOTES: Ba/F3 Cell Viability Inhibition Assay (IGF-1R Ba/F3)
- CONDITION NOTES: Tel-TK transformed Ba/F3 cells, 48 hours, Britelite luminescence
RECORDED ENDPOINT: pIC50
Reminder that pIC50 means the negative base-10 logarithm of the concentration expressed in mol/L.

Request: Provide the documented pIC50 with IGF-1R Ba/F3 (Homo sapiens, UniProt P08069) as the system for CCc1cnc(N2CCC(c3cc(F)c(Nc4ncc(Cl)c(Nc5cc(C)[nH]n5)n4)cc3C)CC2)nc1
Response: 6.02

Request: Lookup: pIC50 / IGF-1R Ba/F3 (Homo sapiens, UniProt P08069) / CCNC(=O)C(CC)N1CCC(c2cc(C)c(Nc3ncc(Cl)c(Nc4cc(C)[nH]n4)n3)cc2C)CC1 (stereo not shown)
Response: 8.15

Request: Any idea what pIC50 came out for Cc1cc(Nc2nc(Nc3cc(C(F)(F)F)c(C4CCNCC4)cc3C)ncc2Cl)n[nH]1 on IGF-1R Ba/F3 (Homo sapiens, UniProt P08069)?
Response: 7.15

Request: Entry Cc1cc(Nc2nc(Nc3cc(C)c(C4CCN(C(=O)CN5CCC5)CC4)cc3F)ncc2Cl)n[nH]1 , system IGF-1R Ba/F3 (Homo sapiens, UniProt P08069): what pIC50 was measured?
Response: 7.19
